Listed here: compounds with reported Kd for FKBP12 (Homo sapiens, UniProt P62942).
# output: bare number, implied unit nM

Consider the worked cases shown below.
C=CC1CN(Cc2ccccn2)C(=O)C2CCCC1N2S(=O)(=O)c1cc(Cl)cc(-c2cn(CCOCCOCCNC(=O)CC3N=C(c4ccc(Cl)cc4)c4c(sc(C)c4C)-n4c(C)nnc43)nn2)c1 (stereo not drawn) = 76
C=CC1CN(Cc2cn(CCOCCNC(=O)CC3N=C(c4ccc(Cl)cc4)c4c(sc(C)c4C)-n4c(C)nnc43)nn2)C(=O)C2CCCC1N2S(=O)(=O)c1cc(Cl)cc(Cl)c1 (stereo not drawn) = 10
C=CC1CN(Cc2cn(CCOCCOCCNC(=O)CC3N=C(c4ccc(Cl)cc4)c4c(sc(C)c4C)-n4c(C)nnc43)nn2)C(=O)C2CCCC1N2S(=O)(=O)c1cc(Cl)cc(Cl)c1 (stereo not drawn) = 8.7
Cc1sc2c(c1C)C(c1ccc(Cl)cc1)=NC(CC(=O)N1CCC(N3CCC(n4cc(C5CN(Cc6ccccn6)C(=O)C6CCCC5N6S(=O)(=O)c5cc(Cl)cc(Cl)c5)nn4)CC3)CC1)c1nnc(C)n1-2 (stereo not drawn) = 2.2
Cc1sc2c(c1C)C(c1ccc(C#CCNC(=O)COCCn3cc(C4CN(Cc5ccccn5)C(=O)C5CCCC4N5S(=O)(=O)c4cc(Cl)cc(Cl)c4)nn3)cc1)=NC(CC(=O)OC(C)(C)C)c1nnc(C)n1-2 (stereo not drawn) = 3.7

Let's switch to this compound now.
Case Cc1sc2c(c1C)C(c1ccc(C#CCNC(=O)COCCn3cc(COCC4CN(Cc5ccccn5)C(=O)C5CCCC4N5S(=O)(=O)c4cc(Cl)cc(Cl)c4)nn3)cc1)=NC(CC(=O)OC(C)(C)C)c1nnc(C)n1-2 (stereo not drawn) , FKBP12 (Homo sapiens, UniProt P62942), Kd recorded as 1

----------
α BRD4^BD2 (binding cooperativity factor) overview
Target: BRD4^BD2 (Homo sapiens, UniProt O60885)
Construct: to the isolated BD1 and BD2 domains of BRD2, BRD3 and BRD4
Experiment: competitive fluorescence polarization assay, BRD4 BD2 -/+ presenter protein
Format: binding
Details: ratio of binding in absence or presence of FKBP12
A bare number is all that is needed in reply.

Cc1sc2c(c1C)C(c1ccc(Cl)cc1)=NC(CC(=O)N1CCC(CN3CCC(n4cc(C5CN(Cc6ccccn6)C(=O)C6CCCC5N6S(=O)(=O)c5cc(Cl)cc(Cl)c5)nn4)CC3)CC1)c1nnc(C)n1-2 (centres unmarked) [a7c] = 0.8
Cc1sc2c(c1C)C(c1ccc(Cl)cc1)=NC(CC(=O)N1CCN(CCn3cc(COCC4CN(Cc5ccccn5)C(=O)C5CCCC4N5S(=O)(=O)c4cc(Cl)cc(Cl)c4)nn3)CC1)c1nnc(C)n1-2 (centres unmarked) [a4d] = 1
Cc1sc2c(c1C)C(c1ccc(Cl)cc1)=NC(CC(=O)N1CCN(CCCCn3cc(COCC4CN(Cc5ccccn5)C(=O)C5CCCC4N5S(=O)(=O)c4cc(Cl)cc(Cl)c4)nn3)CC1)c1nnc(C)n1-2 (centres unmarked) [a6d] = 1.8
C=CC1CN(Cc2ccccn2)C(=O)C2CCCC1N2S(=O)(=O)c1cc(Cl)cc(-c2cn(CCOCCNC(=O)CC3N=C(c4ccc(Cl)cc4)c4c(sc(C)c4C)-n4c(C)nnc43)nn2)c1 (centres unmarked) [a1g] = 0.2

Record Cc1sc2c(c1C)C(c1ccc(Cl)cc1)=NC(CC(=O)N1CC(CN3CCC(Cn4cc(C5CN(Cc6ccccn6)C(=O)C6CCCC5N6S(=O)(=O)c5cc(Cl)cc(Cl)c5)nn4)CC3)C1)c1nnc(C)n1-2 (centres unmarked) [a12c] / BRD4^BD2 (Homo sapiens, UniProt O60885), α BRD4^BD2 (binding cooperativity factor) recorded as 1.1

----------
Listing of entries alongside the reported IC50.
Molecular target: FKBP12 (Homo sapiens, UniProt P62942)
Sequence (P62942 whole entry): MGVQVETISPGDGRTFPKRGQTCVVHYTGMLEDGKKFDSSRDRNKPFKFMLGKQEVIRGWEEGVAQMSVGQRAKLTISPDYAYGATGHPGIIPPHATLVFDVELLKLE
Assay: NanoBRET FKBP12 in intact HEK293 cells
Quick note: give the figure in µM, leave out the unit.

Some molecules with known IC50 results, for comparison:
C=CC1CN(Cc2cn(CCOCCNC(=O)CC3N=C(c4ccc(Cl)cc4)c4c(sc(C)c4C)-n4c(C)nnc43)nn2)C(=O)C2CCCC1N2S(=O)(=O)c1cc(Cl)cc(Cl)c1 (stereo not shown) = 0.2
Cc1sc2c(c1C)C(c1ccc(Cl)cc1)=NC(CC(=O)N1CCC(CN3CCC(n4cc(COCC5CN(Cc6ccccn6)C(=O)C6CCCC5N6S(=O)(=O)c5cc(Cl)cc(Cl)c5)nn4)CC3)CC1)c1nnc(C)n1-2 (stereo not shown) = 0.209
Cc1sc2c(c1C)C(c1ccc(Cl)cc1)=NC(CC(=O)N1CCN(CCCn3cc(COCC4CN(Cc5ccccn5)C(=O)C5CCCC4N5S(=O)(=O)c4cc(Cl)cc(Cl)c4)nn3)CC1)c1nnc(C)n1-2 (stereo not shown) = 0.093

Now let's try a different one.
IC50 reported for this molecule Cc1sc2c(c1C)C(c1ccc(Cl)cc1)=NC(CC(=O)N1CC(CN3CCC(Cn4cc(C5CN(Cc6ccccn6)C(=O)C6CCCC5N6S(=O)(=O)c5cc(Cl)cc(Cl)c5)nn4)CC3)C1)c1nnc(C)n1-2 (stereo not shown) [a12c] : 0.28

----------
Target: BRD4 (Homo sapiens)
Construct: full-length BRD4 fused to NanoLuc at N terminus
Assay: NanoBRET BRD4, transient BRD4-NanoLuc in HEK293T cells
Conditions: intact HEK293 cells
Description: The NanoBRET assay was performed as described previously[26],[39]. To study BRD4 engagement, we employed two models: cells stably expressing BRD4-NanoLuc and cells with transient BRD4-NanoLuc expression. […] Competitive displacement data were analyzed using GraphPad Prism 9 with a normalized 3-parameter curve fit: Y = 100/(1 + 10^(X − log IC₅₀)). […]
Field: label. Allowed values: Fulfilled (IC50 < 700 nM) or Not fulfilled (IC50 >= 700 nM).

Please review the entries below; each comes with its answer.
Cc1sc2c(c1C)C(c1ccc(Cl)cc1)=NC(CC(=O)N1CCN(CCCCn3cc(COCC4CN(Cc5ccccn5)C(=O)C5CCCC4N5S(=O)(=O)c4cc(Cl)cc(Cl)c4)nn3)CC1)c1nnc(C)n1-2 (stereo not shown) [a6d] = Not fulfilled
C=CC1CN(Cc2cn(CCOCCOCCNC(=O)CC3N=C(c4ccc(Cl)cc4)c4c(sc(C)c4C)-n4c(C)nnc43)nn2)C(=O)C2CCCC1N2S(=O)(=O)c1cc(Cl)cc(Cl)c1 (stereo not shown) [a2i] = Not fulfilled
Cc1sc2c(c1C)C(c1ccc(Cl)cc1)=NC(CC(=O)N1CCC(N3CCC(Cn4cc(C5CN(Cc6ccccn6)C(=O)C6CCCC5N6S(=O)(=O)c5cc(Cl)cc(Cl)c5)nn4)CC3)CC1)c1nnc(C)n1-2 (stereo not shown) [a10c] = Fulfilled
Cc1sc2c(c1C)C(c1ccc(Cl)cc1)=NC(CC(=O)N1CCC3(CC1)CC(n1cc(C4CN(Cc5ccccn5)C(=O)C5CCCC4N5S(=O)(=O)c4cc(Cl)cc(Cl)c4)nn1)C3)c1nnc(C)n1-2 (stereo not shown) [a13c] = Not fulfilled
Cc1sc2c(c1C)C(c1ccc(Cl)cc1)=NC(CC(=O)N1CCC(CN3CCC(Cn4cc(COCC5CN(Cc6ccccn6)C(=O)C6CCCC5N6S(=O)(=O)c5cc(Cl)cc(Cl)c5)nn4)CC3)CC1)c1nnc(C)n1-2 (stereo not shown) [a8d] = Fulfilled
Cc1sc2c(c1C)C(c1ccc(Cl)cc1)=NC(CC(=O)N1CCC(CN3CCC(Cn4cc(C5CN(Cc6ccccn6)C(=O)C6CCCC5N6S(=O)(=O)c5cc(Cl)cc(Cl)c5)nn4)CC3)CC1)c1nnc(C)n1-2 (stereo not shown) [a8c] = Fulfilled

Enquiry: Hello, is IC50 of the following compound strictly smaller than 700 nM? Cc1sc2c(c1C)C(c1ccc(C#CCNC(=O)COCCn3cc(COCC4CN(Cc5ccccn5)C(=O)C5CCCC4N5S(=O)(=O)c4cc(Cl)cc(Cl)c4)nn3)cc1)=NC(CC(=O)OC(C)(C)C)c1nnc(C)n1-2 (stereo not shown) [b3d]
Return: Fulfilled

Enquiry: Below 700 nM on IC50? Entry Cc1sc2c(c1C)C(c1ccc(Cl)cc1)=NC(CC(=O)NCCOCCn1cc(COCC3CN(C(C)c4ccccn4)C(=O)C4CCCC3N4S(=O)(=O)c3cc(Cl)cc(Cl)c3)nn1)c1nnc(C)n1-2 (stereo not shown) [a1dj]
Return: Fulfilled

Enquiry: In the record for Cc1sc2c(c1C)C(c1ccc(Cl)cc1)=NC(CC(=O)N1CC(CN3CCC(Cn4cc(COCC5CN(Cc6ccccn6)C(=O)C6CCCC5N6S(=O)(=O)c5cc(Cl)cc(Cl)c5)nn4)CC3)C1)c1nnc(C)n1-2 (stereo not shown) [a12d] , is IC50 less than 700 nM?
Return: Fulfilled
